Assay: Clearance values in rats after iv administration.
Format: ADME, organism-based
Settings: rat, in vivo
metric: clearance (mL/min/kg)

Cc1cc(N)nc(C)c1CNC(=O)[C@@H]1CCCN1C(=O)[C@H](NC(=O)OC(C)(C)C)C(c1ccccc1)c1ccccc1    76

A. Nc1ccc(CNC(=O)[C@@H]2CCCN2C(=O)[C@@H](Cc2ccc(Cl)c(Cl)c2)NS(=O)(=O)Cc2ccccc2)cc1
B. CC(C)(C)OC(=O)N[C@@H](C(=O)N1CCC[C@H]1C(=O)NCc1ccc(N)nc1)C(C1CCCCC1)C1CCCCC1
Exercise: Given A and given B , which shows the smaller recorded clearance? Please identify the chosen entry by its label.
Key: B
(B: 27 mL/min/kg, A: 71 mL/min/kg)

Reference for the values: ChEMBL document CHEMBL1130400
